biological target: T1, MBP-PDZ protein (Erbin PDZ) with a single cysteine, conjugated to DNA (UniProt Q96RT1 1321-1410, ATTO 532 (labelled with ATTO 532-NHS); amine-modified DNA oligonucleotide coupled through sulfo-SMCC to the single cysteine between MBP and PDZ); assay: single-molecule plasmon-enhanced fluorescence microscopy (TIRF); MBP-PDZ held on gold nanorods (40 by 80 nm) by DNA hybridisation, particles immobilised on glass; ATTO 655-labeled peptide in solution; 637 nm laser; 20 ms exposure; koff from bright times (double exponential fit), kon from event frequency against proteins per particle; details: both partners purified
T1 construct: stretch between MBP and the PDZ domain that holds the single introduced cysteine; Erbin PDZ domain; Held on DNA-coated 40 by 80 nm gold nanorods by DNA hybridisation; About 50% of the protein in the conjugation mixture carried no DNA; also called Erbin PDZ protein; PDZ-DNA; not shown: MBP, N-terminal, kept
pKd: −log10 of the molar value. Where no end group is shown, it is not given here.
Parameter: pKd

Looking up CGAGRGSIDTWV (also: ATTO 655 label (site not given here)) [ATTO 655-labeled target peptide] , I see its pKd listed as 5.29 to 6.00

Where do these numbers come from? They come from paper PMC12311895.
